# ASSAY EXPLANATION: small-molecule microarray binders of probe aLefty2, primary screen, biochemical, biotinylated probe, 635/667 nm fluorescence (AID 1094);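 note: score merges spot fluorescence near 667 nm with spot signal-to-noise ratio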
# STUDY CONDITIONS: higher = more signal
EXPERIMENTAL READOUT: composite z-score
Number, no unit, nothing else.

GET /values?readout=composite z-score&item= COc1ccc(C(O)C2C=CC3C(=O)N(c4ccccc4)C(=O)C3N2Nc2ccccc2F)cc1 (stereo not given)
0.183

Same thing, different compound: `C=C(COC)C(=O)CC[C@H](OC(=O)c1cccnc1)c1ccc(CO)o1`
-0.132

Same thing, different compound: `COC(=O)[C@@]1(Cc2ccc(F)cc2)[C@H]2c3cc(C(=O)N4CCCC4)n(C)c3C[C@H]2CN1C(=O)c1ccccc1`
0.744

Same thing, different compound: CCOC(=O)C1=CCC(c2ccccc2)N(S(=O)(=O)c2ccc([N+](=O)[O-])cc2)C1 (stereo not given)
-0.0081

Same thing, different compound: CC(C)c1ccc(NN2C(C(O)Cc3ccccc3)C=CC3C(=O)N(c4ccccc4)C(=O)C32)cc1 (stereo not given)
0.388

---

For each entry below, report its z-score value.
# ASSAY EXPLANATION: PSAC antagonists in infected red cells, primary screen, cell-based, P. falciparum Indochina, OD700, 1 h (AID 1154)
# STUDY CONDITIONS: P. falciparum Indochina infected RBC osmotic lysis, higher = more signal, called active from +8 up or from −8 down
Number, no unit, nothing else.

GET /values?readout=z-score&item= `C=CCNC(=O)[C@H]1[C@@H]2C(=O)O[C@@H](c3ccccc3)[C@@H](c3ccccc3)N2[C@@H](c2ccc(O)cc2)[C@]12C(=O)N(C(=O)OCCOC)c1ccc(C#CCC(C(=O)OC)C(=O)OC)cc12`
5.56

Same thing, different compound: `[N-]=[N+]=Nc1ccccc1C[C@]1(C(=O)O)N=C(c2ccc(OCCCO)cc2)O[C@H]1c1ccccc1`
18.4

Same thing, different compound: `[N-]=[N+]=NCc1ccccc1[C@@H]1OC(c2ccc(OCCCO)cc2)=N[C@]1(Cc1ccccc1N=[N+]=[N-])C(=O)N1CCCCC1`
16.3

Same thing, different compound: `COC(=O)C(CC#Cc1ccc2c(c1)[C@]1(C(=O)N2)[C@H](C(=O)Nc2nc3ccccc3s2)[C@H]2C(=O)O[C@H](c3ccccc3)[C@H](c3ccccc3)N2[C@@H]1c1ccc(OCCO)cc1)C(=O)OC`
5.91

Same thing, different compound: CC(C)CCC[C@@H](C)[C@H]1CC[C@@]2(C)C3=C(CC[C@]12C)[C@@]1(C)CC[C@H](OC(=O)c2ccccc2)C(C)(C)C1CC3 (stereo partly specified)
-0.44

Same thing, different compound: `C[C@@H]1ON(c2ccc(I)cc2)[C@H](c2ccc(OC(=O)OC(C)(C)C)cc2)[C@H]1C(=O)N1C(=O)OC[C@H]1Cc1ccccc1`
0.789

---

# Test system: XIP peptide (Xip251-270) binding
# ASSAY EXPLANATION: small-molecule binders of XIP peptide, primary screen, biochemical, small-molecule microarray, fluorescence 635/667 nm, 0.1 µg/mL protein (AID 1182)
# STUDY CONDITIONS: fluorescent protein binding, 635 nm, higher = more signal, called active from +8 up or from −8 down
Category key, based on recorded composite z-score: band A: < 0.1; band B: ≥ 0.1 and < 0.4; band C: ≥ 0.4

Please report the category associated with CC(=O)n1cc(C(O)C2C=CC3C(=O)N(c4ccccc4)C(=O)C3N2Nc2ccc(C(C)C)cc2)c2ccccc21 (centres undefined) , nothing else.
band B

Same thing, different compound: `COCCOC(=O)N1C(=O)[C@@]2(c3cc(C#CCCO)ccc31)[C@H](C(=O)N1CCCCCCC1)[C@H]1C(=O)O[C@H](c3ccccc3)[C@H](c3ccccc3)N1[C@@H]2c1ccccc1OCCO`
band C

Same thing, different compound: `O=c1cccc(-c2ccco2)o1`
band A

Same thing, different compound: `COCCOC(=O)N1C(=O)[C@@]2(c3cc(C#CCNC(N)=O)ccc31)[C@H](c1ccc(OCCO)cc1)N1[C@H](c3ccccc3)[C@H](c3ccccc3)OC(=O)[C@H]1[C@@H]2C(N)=O`
band B

Same thing, different compound: `[N-]=[N+]=NCc1ccccc1C[C@]1(C(=O)N2CCOCC2)COC(c2ccc(OCCCO)cc2)=N1`
band B

Same thing, different compound: `CCCCC(=C=CC[C@H](O)c1ccc(OCCO)cc1)C[C@H](O)COCc1ccccc1`
band C

Same thing, different compound: C=CCC(OC(C)=O)[C@@H]1[C@@H](N(Cc2cccc3ccccc23)C(=O)c2ccc(-c3ccccc3)cc2)c2cc(OCCCO)ccc2N1C(=O)c1ccc(-c2ccccc2)cc1 (some centres undefined)
band A

Same thing, different compound: `CCCCNC(=O)c1ccc(C#C[Si](C(C)C)(C(C)C)C(C)C)c(OC(C)=O)c1`
band A

Same thing, different compound: `COCCCNC(=O)[C@@]1(Sc2ccc(C)cc2)CC(=O)N(C(C)C)[C@@H]1c1ccc(CO)cc1I`
band B

Same thing, different compound: `O=C1O[C@H](c2ccccc2)[C@H](c2ccccc2)N2[C@H]1[C@@H](C(=O)N1CCCCCCC1)[C@]1(C(=O)Nc3ccc(C#CC4(O)CCCCCC4)cc31)[C@H]2c1ccc(O)cc1`
band C

Same thing, different compound: `C=C/C=C/[C@@H]1C(=C)CN([C@@H](Cc2ccccc2)C(=O)OC)[C@H]1[C@@H](O)Cc1ccccc1`
band C

Same thing, different compound: `CN(C)CCCCNC(=O)[C@H]1C[C@H]2C(=O)N[C@@H](CCCC[N+](C)(C)C)C(=O)N2[C@H]1c1ccc(O)cc1`
band A

Same thing, different compound: `CCOC(=O)C[C@H]1[C@H](OC(=O)c2ccc(-c3ccccc3)cc2)[C@@H](NC(=O)CC(C)C)c2cc(OCCCO)ccc2N1C(=O)c1ccccc1`
band B

---

# ASSAY EXPLANATION: PSAC antagonists in infected red cells, primary screen, cell-based, P. falciparum Indochina, OD700, 2 h (AID 1155);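 note: lysis reports solute entry through the parasite surface anion channel PSAC; channel blockers reduce lysis of infected cells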
# STUDY CONDITIONS: P. falciparum Indochina infected erythrocytes, osmotic lysis OD700, called active from +8 up or from −8 down
The source made the active and inactive calls.
Outcome field: choose from active, inactive

For `CCCCC(=O)N(CCN1CCOCC1)[C@@H]1CC(C(=O)NCCO)=C[C@H](Oc2c(I)cc(CO)cc2OC)[C@H]1O` , what call appears in the results of this test?
inactive

Same thing, different compound: `COC(=O)[C@@]1(Cc2ccccc2)[C@H]2c3cc(C(=O)N(C)C)n(CCn4cc([N+](=O)[O-])nc4C)c3C[C@H]2CN1C(=O)c1ccccc1`
inactive

Same thing, different compound: `CN(C)C(=O)[C@]1(CCS(=O)(=O)c2ccccc2)N=C(c2ccc(OCCCO)cc2)O[C@@H]1c1ccccc1`
active

Same thing, different compound: `COC(=O)c1c2oc(c1C(=O)OC)C(=O)N1CCC[C@H]1Cn1nncc1CN(Cc1ccccc1)C(=O)N[C@H](CO)CC2`
inactive

Same thing, different compound: `CCOC(=O)C1=C[C@@H](C(C)(C)C)N(S(=O)(=O)c2ccc(C)cc2)[C@H]1c1ccc(C)cc1`
inactive

Same thing, different compound: `[N-]=[N+]=NCc1ccccc1[C@@H]1OC(c2ccc(OCCCO)cc2)=N[C@]1(Cc1ccccc1)C(=O)NCCN1CCOCC1`
inactive

Same thing, different compound: `O=C1N(CCS(=O)(=O)c2ccccc2)Cc2ccccc2[C@@H]2OC(c3ccc(OCCCO)cc3)=N[C@]12CCS(=O)(=O)c1ccccc1`
active

---

# ASSAY EXPLANATION: small-molecule microarray binders of probe aLefty2, primary screen, biochemical, biotinylated probe, 635/667 nm fluorescence (AID 1094);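 note: score merges spot fluorescence near 667 nm with spot signal-to-noise ratio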
# STUDY CONDITIONS: higher = more signal
For each entry below, report its composite z-score value.
Number, no unit, nothing else.

GET /values?readout=composite z-score&item= `CCc1cccc(NC(=O)O[C@H]2[C@H](OC(=O)Nc3ccccc3)[C@H](OC(=O)Nc3ccccc3)[C@@H](OC)O[C@@H]2CO)c1`
0.0166

Same thing, different compound: `CCOC(=O)C1=C[C@@H](C(C)(C)C)N(S(=O)(=O)c2ccc(C)cc2)[C@H]1c1ccc(C)cc1`
0.273

Same thing, different compound: `COCCOC(=O)N1C(=O)[C@@]2(c3cc(C#CCC(C(=O)OC)C(=O)OC)ccc31)[C@H](c1ccc(O)cc1)N1[C@H](c3ccccc3)[C@H](c3ccccc3)OC(=O)[C@H]1[C@@H]2C(=O)NC[C@H](O)c1ccccc1`
-0.0788

---

# System: wheat germ agglutinin (Triticum aestivum), Alexa647-labelled
# ASSAY EXPLANATION: wheat germ agglutinin binders on compound microarrays, profiling panel, artefact control for SMM control-protein annotation, biochemical, small-molecule microarray, 635/667 nm fluorescence (AID 1140);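 note: score merges 667 nm feature emission with signal to noise over triplicate slides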
# STUDY CONDITIONS: WGA-A647 binding, 635 nm fluorescence, higher = more signal
For each entry below, report its composite z-score value.
Number, no unit, nothing else.

GET /values?readout=composite z-score&item= CC(C)[C@H]1NC(=O)[C@@]23C(=O)N[C@@H](Cc4ccccc4)C2[C@H](C)[C@@]2(C)O[C@H]2C3/C=C/CCC/C=C/CNC(=O)[C@H](Cc2ccccc2)NC1=O (some centres undefined)
-0.755

Same thing, different molecule: `COCCOC(=O)N1C(=O)[C@@]2(c3cc(C#CCCO)ccc31)[C@H](C(N)=O)[C@H]1C(=O)O[C@H](c3ccccc3)[C@H](c3ccccc3)N1[C@@H]2c1ccc(OCCO)cc1`
0.583

Same thing, different molecule: `CCCCC=C[C@@H](NC(=O)c1ccccc1)c1ccccc1`
0.68

Same thing, different molecule: CN1C(=O)C2C=CC(C(O)c3cc(C(F)(F)F)cc(C(F)(F)F)c3)N(NC(=O)OC(C)(C)C)C2C1=O (centres undefined)
0.713

Same thing, different molecule: CC1CC/C=C\[C@H]2OC34C=CCN(CCN5CCOCC5)C(=O)[C@H]3N(C(C)CO)C(=O)[C@@H]4C2C(=O)O1 (some centres undefined)
-0.928

Same thing, different molecule: CCCCCN1CC=CC23O[C@@H]4C=CCOC(=O)[C@@H]4[C@H]2C(=O)N(CCO)[C@@H]3C1=O (some centres undefined)
-0.324

Same thing, different molecule: CC(C)C(CO)N1C(=O)[C@@H]2[C@H]3C(=O)OCC=C[C@H]3OC23C=CCN(C(C)(C)C)C(=O)[C@@H]13 (some centres undefined)
-0.0676

Same thing, different molecule: `[N-]=[N+]=NCc1ccccc1[C@@H]1OC(c2ccc(OCCCO)cc2)=N[C@]1(Cc1ccccc1N=[N+]=[N-])C(=O)NCCN1CCOCC1`
0.445

Same thing, different molecule: `COc1ccc([Si](C)(C)[C@H]2[C@H](CCO)O[C@@]3(C(=O)N(Cc4ccc(N5C(=O)c6ccccc6Oc6ccccc65)cc4)c4ccccc43)[C@@H]2C)cc1`
0.0124

Same thing, different molecule: `C=C(/C(=C/C[C@H](OC(=O)c1ccncc1)c1cccc(OCCO)c1)c1cnc2ccccc2c1)C(C)C`
1.33

Same thing, different molecule: `COCCOC(=O)N1C(=O)[C@@]2(c3cc(C#CC4(O)CCCCCC4)ccc31)[C@H](c1ccc(OCCO)cc1)N1[C@H](c3ccccc3)[C@H](c3ccccc3)OC(=O)[C@H]1[C@@H]2C(=O)Nc1nc2ccccc2s1`
0.708

Same thing, different molecule: `CN(C)CCCNC(=O)[C@@H]1c2ccccc2C(=O)N(C2CCCCC2)[C@H]1c1ccc(CO)cc1`
0.277

Same thing, different molecule: COc1cc2c(cc1O)C(c1ccc(CN3CCCC3)cc1)N(C)CC2 (centres undefined)
0.434

Same thing, different molecule: `C=CCN1C(=O)[C@]2(O[C@H](CCO)[C@@H]([Si](C)(C)c3ccc(OC)cc3)[C@@H]2C)c2cc(NC(=O)c3ccc(OC)cc3)ccc21`
0.286

Same thing, different molecule: `CCCNC(=O)[C@@]1(Sc2ccc(C)cc2)CC(=O)N(C2CCCCC2)[C@@H]1c1ccc(CO)cc1I`
0.73

Same thing, different molecule: `COCCOC(=O)N1C(=O)[C@@]2(c3cc(C#CCNC(N)=O)ccc31)[C@H](c1ccc(OCCO)cc1)N1[C@H](c3ccccc3)[C@H](c3ccccc3)OC(=O)[C@H]1[C@@H]2C(=O)NC[C@H](O)c1ccccc1`
0.768

Same thing, different molecule: `CC(C)C(=C=CC[C@@H](O)c1cccc(OCCO)c1)C[C@@H](O)COCc1ccccc1`
0.866

Same thing, different molecule: `C=CCOC(=O)[C@H]1[C@@H]2C(=O)O[C@@H](c3ccccc3)[C@@H](c3ccccc3)N2[C@@H](c2ccc(OCCOC(=O)[C@H]3C[C@H]4C(=O)N[C@@H](CCCCNC(C)=O)C(=O)N4[C@H]3c3cccc(OCCO)c3)cc2)[C@]12C(=O)Nc1ccc(I)cc12`
0.0811

Same thing, different molecule: `CC(C)C(=C=CC[C@H](O)c1cccc(OCCO)c1)CCO`
0.108

Same thing, different molecule: `CC(C)C[C@@H]1NC(=O)[C@@H]2C[C@H](C(=O)NCCCCCC[N+](C)(C)C)[C@H](c3cccc(OCCO)c3)N2C1=O`
-0.285

Same thing, different molecule: `COCC(=C=CC[C@H](O)c1cccc(OCCO)c1)C[C@H](O)COCc1ccccc1`
-0.41

Same thing, different molecule: CN1C(=O)C2C(C1=O)C1C=C(CCCO)C2C(c2cccs2)N1Cc1cc2c(cc1Br)OCO2 (centres undefined)
1.17

Same thing, different molecule: `O=C(O)[C@@H]1C[C@@H]2C(=O)N3CCC[C@H]3C(=O)N2[C@@H]1c1cccc(OCCO)c1`
1.69

Same thing, different molecule: `COc1ccc(NC(=O)O[C@H]2[C@@H]3OC(=O)[C@H](Cc4cccc(Br)c4)C/C=C/C[C@@H](Cc4cccc(Br)c4)C(=O)O[C@H]3[C@@H](OC)O[C@@H]2CO)cc1`
0.464

Same thing, different molecule: `[N-]=[N+]=NCc1ccccc1[C@H]1OC(c2ccc(OCCCO)cc2)=N[C@@]1(CCS(=O)(=O)c1ccccc1)C(=O)NCc1ccccc1`
0.703

Same thing, different molecule: `Cc1ccc(S[C@]2(C(=O)NC(C)C)CC(=O)N(Cc3ccccc3Cl)[C@@H]2c2ccc(CO)cc2)cc1`
0.762

Same thing, different molecule: COc1cc(NN2C(C(O)c3ccccc3)C=CC3C(=O)N(C)C(=O)C32)cc(OC)c1OC (centres undefined)
1.23

Same thing, different molecule: `C=C(COC)/C(=C/C[C@H](OC(C)=O)c1cccc(OCCO)c1)c1cnc2ccccc2c1`
1.14

Same thing, different molecule: `COCC(=C=CC[C@@H](O)c1ccc(OCCO)cc1)CCO`
1.27

Just for reference, PubChem BioAssay is where these values come from.
